target: BA8 Fab; experiment: SPR analysis of sulfated, non-sulfated and partially sulfated CCR5 N-terminal peptides with BA8; type: binding, rabbit; conditions: SPR; BA8 Fab immobilized; partially sulfated peptide as analyte
Where no end group is shown, it is not given here. [ ]: non-standard residue; d: D form. sY = N[C@@H](Cc1ccc(OS(=O)(=O)O)cc1)C(=O)O
quantity.name: Kd (nM)
Express the result in nM but write the number alone.

# Kd of TYS7: partially sulfated CCR5 N-terminal peptide containing 7Tys (PIYDIN[sY]YTSE; UniProt P51681 8-18, looked up, fragment) = 67.8

----------
Biological target: BA8 Fab
Test: ITC analysis of sulfated, non-sulfated and partially sulfated CCR5 N-terminal peptides with BA8
Type: binding, rabbit
Details: 10 μM BA8 Fab in cell, 100 μM peptide in syringe, PBS, 25 °C
From the text: To determine the thermodynamic parameters accompanying the interaction, we performed an ITC analysis (Fig. 2B, Table 2). We prepared these partially sulfated peptides and analyzed their interactions with BA8 using SPR and ITC (Fig. 4, B and C, Tables 3 and 4). […] These findings indicate that sulfation at 7Tys is essential for BA8 recognition. […] Thus, the high specificity and affinity of BA8 for the sulfated CCR5 N-terminal peptide likely rely heavily on the sulfation at 7Tys and 8Tys. […]
Where no end group is shown, it is not given here. [ ]: non-standard residue; d: D form. sY = N[C@@H](Cc1ccc(OS(=O)(=O)O)cc1)C(=O)O
quantity.name: pKd
Please express pKd as -log10 of the molar concentration.

# pKd of TYS7: partially sulfated CCR5 N-terminal peptide containing 7Tys (PIYDIN[sY]YTSE; UniProt P51681 8-18, looked up, fragment) = 7.87
